# Organism: Cavia porcellus
# ASSAY_DETAILS: Effective concentration required for its inhibition of nonspecific binding to guinea pig ileal membranes
# Type: functional
RESULT_TYPE: pEC50
// pEC50: -log10(molar conc.)

1) CSCC[C@H](NC(=O)[C@H](CC(C)C)NC(=O)CNC(=O)[C@H](Cc1ccccc1)NC(=O)[C@@H](NC(=O)[C@H](CCC(N)=O)NC(=O)[C@H](CCC(N)=O)NC(=O)[C@@H]1CCCN1C(=O)[C@H](CCCCN)NC(=O)[C@@H]1CCCN1C(=O)[C@@H](N)CCCN=C(N)N)C1CCc2cc3ccccc3cc21)C(N)=O (stereo partly drawn) ... 8.16

-- ask Please report the recorded pEC50 for CSCC[C@H](NC(=O)[C@H](CC(C)C)NC(=O)CNC(=O)[C@@H](NC(=O)[C@H](Cc1ccccc1)NC(=O)[C@H](CCC(N)=O)NC(=O)[C@H](CCC(N)=O)NC(=O)[C@@H]1CCCN1C(=O)[C@H](CCCCN)NC(=O)[C@@H]1CCCN1C(=O)[C@@H](N)CCCN=C(N)N)C(C)(C)SC)C(N)=O .
-- reply 8.77

-- ask Please report the recorded pEC50 for CSCC[C@H](NC(=O)[C@H](CC(C)C)NC(=O)CNC(=O)[C@H](Cc1ccccc1)NC(=O)/C(=C/c1ccccc1)NC(=O)[C@H](CCC(N)=O)NC(=O)[C@H](CCC(N)=O)NC(=O)[C@@H]1CCCN1C(=O)[C@H](CCCCN)NC(=O)[C@@H]1CCCN1C(=O)[C@@H](N)CCCN=C(N)N)C(N)=O .
-- reply 5.51

* * *

Each entry below lists one item and its recorded EC50 value.
# Species: Cavia porcellus
# ASSAY_DETAILS: Effective concentration required for its inhibition of nonspecific binding to guinea pig ileal membranes
# Assay type: functional
Reply numerically in nM, unit not repeated.

Field: example entries. Status: answers known.
1) CSCC[C@H](NC(=O)[C@H](CC(C)C)NC(=O)CNC(=O)[C@@H](NC(=O)[C@H](Cc1ccccc1)NC(=O)[C@H](CCC(N)=O)NC(=O)[C@H](CCC(N)=O)NC(=O)[C@@H]1CCCN1C(=O)[C@H](CCCCN)NC(=O)[C@@H]1CCCN1C(=O)[C@@H](N)CCCN=C(N)N)[C@@H]1CCc2cc3ccccc3cc21)C(N)=O ... 2.8
2) CSCC[C@H](NC(=O)[C@H](CC(C)C)NC(=O)CNC(=O)[C@H](Cc1ccccc1)NC(=O)[C@@H](NC(=O)[C@H](CCC(N)=O)NC(=O)[C@H](CCC(N)=O)NC(=O)[C@@H]1CCCN1C(=O)[C@H](CCCCN)NC(=O)[C@@H]1CCCN1C(=O)[C@@H](N)CCCN=C(N)N)[C@@H]1CCc2ccccc21)C(N)=O ... 6.9

Proceeding to the next molecule to report its EC50.
-- ask Please report the recorded EC50 for CSCC[C@H](NC(=O)[C@H](CC(C)C)NC(=O)CNC(=O)[C@H](Cc1ccccc1)NC(=O)[C@@H](NC(=O)[C@H](CCC(N)=O)NC(=O)[C@H](CCC(N)=O)NC(=O)[C@@H]1CCCN1C(=O)[C@H](CCCCN)NC(=O)[C@@H]1CCCN1C(=O)[C@@H](N)CCCN=C(N)N)[C@H]1CCc2ccccc21)C(N)=O .
-- reply 1.2

* * *

# TESTED_SYSTEM: Neuromedin-K receptor (Rattus norvegicus)
# Sequence (P16177 whole entry): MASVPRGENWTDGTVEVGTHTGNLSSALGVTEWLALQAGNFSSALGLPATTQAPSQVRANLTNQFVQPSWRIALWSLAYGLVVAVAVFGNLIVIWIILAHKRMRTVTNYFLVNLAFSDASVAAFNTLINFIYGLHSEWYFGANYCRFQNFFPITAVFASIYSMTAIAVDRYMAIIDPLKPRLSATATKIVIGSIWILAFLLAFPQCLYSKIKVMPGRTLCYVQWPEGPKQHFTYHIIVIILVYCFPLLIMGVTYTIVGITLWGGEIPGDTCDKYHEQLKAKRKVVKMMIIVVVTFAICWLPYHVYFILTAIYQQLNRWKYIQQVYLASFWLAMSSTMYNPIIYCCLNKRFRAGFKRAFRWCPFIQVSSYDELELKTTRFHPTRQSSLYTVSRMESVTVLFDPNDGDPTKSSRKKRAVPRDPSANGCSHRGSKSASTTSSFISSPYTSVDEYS
# ASSAY_DETAILS: Concentration required to inhibit the specific binding of [125I]BH-ELE to Neurokinin-3 (NK-3) receptor in rat brain synaptosomes
Starred links: 1 amine or outer side, 2 acyl side, 3 side chain; linkers in the order of their positions; H or OH if unused. Non-standard residues stand in square brackets, D forms with d. Residues, ends and D or L forms follow the SMILES beside them. Gly(9-fluorenyl) = N[C@H](C(=O)O)C1c2ccccc2-c2ccccc21; X1 = O=C([C@@H](N[*:1])C1CCc2ccccc21)[*:2]
Each entry below lists one item and its recorded IC50 value.
Reply numerically in µM, unit not repeated.

1) CSCC[C@H](NC(=O)[C@H](CC(C)C)NC(=O)CNC(=O)[C@@H](NC(=O)[C@@H](NC(=O)[C@H](CCC(N)=O)NC(=O)[C@H](CCC(N)=O)NC(=O)[C@@H]1CCCN1C(=O)[C@H](CCCCN)NC(=O)[C@@H]1CCCN1C(=O)[C@@H](N)CCCN=C(N)N)C1CCc2ccccc21)C1c2ccccc2-c2ccccc21)C(N)=O (some centres not stated) (H-RPKPQQ[X1][Gly(9-fluorenyl)]GLM-NH2) ... 0.45

-- ask Please report the recorded IC50 for CSCC[C@H](NC(=O)[C@H](CC(C)C)NC(=O)CNC(=O)[C@H](Cc1ccccc1)NC(=O)[C@@H](NC(=O)[C@H](CCC(N)=O)NC(=O)[C@H](CCC(N)=O)NC(=O)[C@@H]1CCCN1C(=O)[C@H](CCCCN)NC(=O)[C@@H]1CCCN1C(=O)[C@@H](N)CCCN=C(N)N)[C@H]1CCc2ccccc21)C(N)=O .
-- reply 2.2

* * *

# Species on record: Cavia porcellus
# ASSAY_DETAILS: Effective concentration required for its inhibition of nonspecific binding to guinea pig ileal membranes
# Type: functional
Non-standard residues stand in square brackets, D forms with d. Residues, ends and D or L forms follow the SMILES beside them. Gly(9-fluorenyl) = N[C@H](C(=O)O)C1c2ccccc2-c2ccccc21
Each entry below lists one item and its recorded pEC50 value.
// pEC50: -log10(molar conc.)

1. CSCC[C@H](NC(=O)[C@H](CC(C)C)NC(=O)[C@@H]1CCCN1C(=O)[C@@H](NC(=O)[C@H](Cc1ccccc1)NC(=O)[C@H](CCC(N)=O)NC(=O)[C@H](CCC(N)=O)NC(=O)[C@@H]1CCCN1C(=O)[C@H](CCCCN)NC(=O)[C@@H]1CCCN1C(=O)[C@@H](N)CCCN=C(N)N)C1c2ccccc2-c2ccccc21)C(N)=O (H-RPKPQQF[Gly(9-fluorenyl)]PLM-NH2) ... 8.77
2. CSCC[C@H](NC(=O)[C@H](CC(C)C)NC(=O)CNC(=O)[C@H](Cc1ccccc1)NC(=O)[C@@H](NC(=O)[C@H](CCC(N)=O)NC(=O)[C@H](CCC(N)=O)NC(=O)[C@@H]1CCCN1C(=O)[C@H](CCCCN)NC(=O)[C@@H]1CCCN1C(=O)[C@@H](N)CCCN=C(N)N)C1Cc2ccccc2C1)C(N)=O ... 5.89

Proceeding to the next compound to report its pEC50.
-- ask Please report the recorded pEC50 for CSCC[C@H](NC(=O)[C@H](CC(C)C)NC(=O)CNC(=O)[C@H](Cc1ccccc1)NC(=O)[C@H](NC(=O)[C@H](CCC(N)=O)NC(=O)[C@H](CCC(N)=O)NC(=O)[C@@H]1CCCN1C(=O)[C@H](CCCCN)NC(=O)[C@@H]1CCCN1C(=O)[C@@H](N)CCCN=C(N)N)C1Cc2ccccc2C1)C(N)=O .
-- reply 5.38

* * *

# TESTED_SYSTEM: Neuromedin-K receptor (Rattus norvegicus, UniProt P16177)
# ASSAY_DETAILS: Concentration required to inhibit the specific binding of [125I]BH-ELE to Neurokinin-3 (NK-3) receptor in rat brain synaptosomes
RESULT_TYPE: IC50

-- ask Please report the recorded IC50 for CSCC[C@H](NC(=O)[C@H](CC(C)C)NC(=O)CNC(=O)[C@@H](NC(=O)[C@H](Cc1ccccc1)NC(=O)[C@H](CCC(N)=O)NC(=O)[C@H](CCC(N)=O)NC(=O)[C@@H]1CCCN1C(=O)[C@H](CCCCN)NC(=O)[C@@H]1CCCN1C(=O)[C@@H](N)CCCNC(=N)N)[C@H]1CCc2cc3ccccc3cc21)C(N)=O .
-- reply 110 nM

-- ask Please report the recorded IC50 for CSCC[C@H](NC(=O)[C@H](CC(C)C)NC(=O)CNC(=O)[C@@H](NC(=O)[C@H](Cc1ccccc1)NC(=O)[C@H](CCC(N)=O)NC(=O)[C@H](CCC(N)=O)NC(=O)[C@@H]1CCCN1C(=O)[C@H](CCCCN)NC(=O)[C@@H]1CCCN1C(=O)[C@@H](N)CCCNC(=N)N)C1c2ccccc2-c2ccccc21)C(N)=O .
-- reply 91 nM

-- ask Please report the recorded IC50 for CSCC[C@H](NC(=O)[C@H](CC(C)C)NC(=O)CNC(=O)[C@H](Cc1ccccc1)NC(=O)[C@H](NC(=O)[C@H](CCC(N)=O)NC(=O)[C@H](CCC(N)=O)NC(=O)[C@@H]1CCCN1C(=O)[C@H](CCCCN)NC(=O)[C@@H]1CCCN1C(=O)[C@@H](N)CCCN=C(N)N)C1Cc2ccccc2C1)C(N)=O .
-- reply > 10000 nM

Entry source: ChEMBL document CHEMBL1127523
